Biological target: T1, cynomolgus monkey BCMA (cynomolgus monkey, UniProt A0A2K5UD97 1-53)
T1 construct: Soluble analyte in SPR; construct not described; also called cyBCMA; Cyno BCMA
T1 sequence (A0A2K5UD97 entry or part of it): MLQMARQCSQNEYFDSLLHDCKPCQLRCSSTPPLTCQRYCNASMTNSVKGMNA
Assay: SPR, IgG immobilised, 25 C
pKd: −log10 of the molar value.
quantity-name: pKd

| binder | quantity-name | measured-value |
| --- | --- | --- |
| L3.NY/P6E01 (antibody, V domains shown, IgG) VH: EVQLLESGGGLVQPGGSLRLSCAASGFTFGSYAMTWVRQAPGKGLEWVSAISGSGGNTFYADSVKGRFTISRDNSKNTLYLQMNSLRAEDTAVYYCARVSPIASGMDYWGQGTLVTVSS VL: EIVLTQSPGTLSLSPGERATLSCRASQSVSSSYLAWYQQKPGQAPRLLIYGASSRATGIPDRFSGSGSGTDFTLTISRLEPEDFAVYYCQHYNYPPSFTFGQGTKVEIK | pKd | 8.55 |
| L1.LGF/L3.KW/P6E01 (antibody, V domains shown, IgG) VH: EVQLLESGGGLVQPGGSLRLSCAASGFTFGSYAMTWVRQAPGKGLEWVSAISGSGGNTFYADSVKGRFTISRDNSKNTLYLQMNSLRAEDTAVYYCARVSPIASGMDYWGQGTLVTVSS VL: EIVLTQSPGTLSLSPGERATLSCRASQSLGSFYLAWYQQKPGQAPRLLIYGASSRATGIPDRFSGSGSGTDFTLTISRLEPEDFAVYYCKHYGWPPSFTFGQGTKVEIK | pKd | 7.37 |
| L3.KW/P6E01 (antibody, V domains shown, IgG) VH: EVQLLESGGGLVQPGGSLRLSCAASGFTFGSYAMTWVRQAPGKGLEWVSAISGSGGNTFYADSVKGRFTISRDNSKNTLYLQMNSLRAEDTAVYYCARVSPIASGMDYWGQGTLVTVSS VL: EIVLTQSPGTLSLSPGERATLSCRASQSVSSSYLAWYQQKPGQAPRLLIYGASSRATGIPDRFSGSGSGTDFTLTISRLEPEDFAVYYCKHYGWPPSFTFGQGTKVEIK | pKd | 8.47 |
| L1.LGF/L3.KW/H3.AL (antibody, V domains shown, IgG) VH: EVQLLESGGGLVQPGGSLRLSCAASGFTFGSYAMTWVRQAPGKGLEWVSAISGSGGNTFYADSVKGRFTISRDNSKNTLYLQMNSLRAEDTAVYYCARVSPIAALMDYWGQGTLVTVSS VL: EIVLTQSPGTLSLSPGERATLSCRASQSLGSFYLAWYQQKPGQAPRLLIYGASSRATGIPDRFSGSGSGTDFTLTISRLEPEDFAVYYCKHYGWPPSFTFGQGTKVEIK | pKd | 7.38 |
| L1.LGF/L3.NY/P6E01 (antibody, V domains shown, IgG) VH: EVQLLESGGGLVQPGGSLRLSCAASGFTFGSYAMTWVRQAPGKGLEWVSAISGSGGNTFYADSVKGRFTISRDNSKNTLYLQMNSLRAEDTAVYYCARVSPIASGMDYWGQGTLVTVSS VL: EIVLTQSPGTLSLSPGERATLSCRASQSLGSFYLAWYQQKPGQAPRLLIYGASSRATGIPDRFSGSGSGTDFTLTISRLEPEDFAVYYCQHYNYPPSFTFGQGTKVEIK | pKd | 7.94 |
| L1.GDF/L3.NY/H3.AL (antibody, V domains shown, IgG) VH: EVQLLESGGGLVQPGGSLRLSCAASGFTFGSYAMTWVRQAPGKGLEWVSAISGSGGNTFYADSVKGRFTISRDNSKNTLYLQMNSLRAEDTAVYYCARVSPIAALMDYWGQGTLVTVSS VL: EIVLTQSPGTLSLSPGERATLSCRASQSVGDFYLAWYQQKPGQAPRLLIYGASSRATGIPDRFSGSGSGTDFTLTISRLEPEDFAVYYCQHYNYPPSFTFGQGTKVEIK | pKd | 7.61 |
| L1.GDF/L3.KW/H3.AQ (antibody, V domains shown, IgG) VH: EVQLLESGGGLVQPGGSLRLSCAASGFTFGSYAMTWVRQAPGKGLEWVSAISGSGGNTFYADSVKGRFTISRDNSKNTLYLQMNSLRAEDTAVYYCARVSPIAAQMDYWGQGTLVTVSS VL: EIVLTQSPGTLSLSPGERATLSCRASQSVGDFYLAWYQQKPGQAPRLLIYGASSRATGIPDRFSGSGSGTDFTLTISRLEPEDFAVYYCKHYGWPPSFTFGQGTKVEIK | pKd | 8.15 |

The measurements presented in this section are drawn from patent US20160297884A1.
